biological target: EP2 subtype of the human PGE2 receptor (Homo sapiens); assay: cAMP antagonism test on the human EP2 receptor (HTRF cAMP detection); format: cell-based; conditions: hEP2 receptor, read-out: Antagonism hEP2 IC50
Observed property: IC50 (nM)

Reference set, count: 3
Cc1c(C(=O)NCCOC(C)C)ccc2nn(CC3CCN(C(=O)c4ccc(Oc5ccc(F)cc5)cc4)CC3)cc12 [Example 98]	7.07
Cc1c(C(=O)NCC2CCCCO2)ccc2nn(CC3CCN(C(=O)c4ccc(Cl)cc4)CC3)cc12 (racemic) [Example 239]	27
Cc1c(C(=O)NCC(F)(F)F)ccc2nn(CC3CCN(C(=O)c4cnc(-c5ccccc5)o4)CC3)cc12 [Example 300]	79.8

[a] COCCNC(=O)c1ccc2nn(CC3CCN(C(=O)c4ccc(Oc5nccc(C(F)(F)F)n5)cc4)CC3)cc2c1C [Example 347]
[b] COCCNC(=O)c1cc2cn(CC3CN(C(=O)c4ccc(Oc5ccc(C(F)(F)F)cc5)cc4)C3)nc2cc1C [Example 202]
Query: Hi! Which is lower in terms of IC50, the first one a or the second one b ? // output: label of the selected item
Result: b

[I] COc1ccc(-c2ccc(C(=O)N3CCC(Cn4cc5c(C)c(C(=O)NCC(F)(F)F)ccc5n4)CC3)cc2)nc1 [Example 326]
[II] O=C(NCCOCC1CC1)c1ccc2nn(CC3CCN(C(=O)c4ccc(Oc5ccc(F)cc5)cc4)CC3)cc2c1OCC(F)(F)F [Example 236]
Query: // task: argmin of IC50 over [ I , II ] Your choice should be expressed through its label.
Result: II

====

target: EP2 subtype of the human PGE2 receptor (Homo sapiens, UniProt P43116); experiment: cAMP antagonism test on the human EP2 receptor (HTRF cAMP detection); assay type: cell-based; settings: hEP2 receptor, read-out: Antagonism hEP2 IC50
Sequence (P43116 whole entry): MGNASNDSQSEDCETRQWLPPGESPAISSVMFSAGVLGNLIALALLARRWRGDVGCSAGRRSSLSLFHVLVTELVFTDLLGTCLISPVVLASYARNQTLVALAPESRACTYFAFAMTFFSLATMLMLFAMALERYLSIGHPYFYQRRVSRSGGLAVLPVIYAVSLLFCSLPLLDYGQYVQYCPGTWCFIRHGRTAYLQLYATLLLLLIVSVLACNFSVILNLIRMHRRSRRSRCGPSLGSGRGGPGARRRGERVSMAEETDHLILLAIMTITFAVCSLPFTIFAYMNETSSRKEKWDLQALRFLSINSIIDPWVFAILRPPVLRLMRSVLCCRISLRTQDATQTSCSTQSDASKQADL
Observed property: IC50 (nM)

The following compounds have reported results that may help.
Cc1c(C(=O)NCCSC(F)(F)F)ccc2nn(CC3CN(C(=O)c4ccc(Cl)cc4)C3)cc12 [Example 127]	55.6
COCCNC(=O)c1ccc2nn(CC3CCN(C(=O)c4ccc(OC(F)F)cc4F)CC3)cc2c1C [Example 40]	11.5
Cc1c(C(=O)NCC2COCCO2)ccc2nn(CC3CN(C(=O)c4ccc(Oc5ccc(F)cc5)cc4)C3)cc12 (racemic) [Example 148]	27.4

[I] COCCNC(=O)c1cc2cn(CC3CCN(C(=O)c4ccc(Cl)c(C(F)(F)F)c4)CC3)nc2cc1C [Example 209]
[II] COCCNC(=O)c1ccc2nn(CC3CCN(C(=O)c4ccc(Oc5cccc(C(F)(F)F)n5)cc4)CC3)cc2c1C [Example 350]
[III] COCCNC(=O)c1ccc2nn(CC3CCN(C(=O)c4ccc(C(C)(C)O)cc4)CC3)cc2c1C [Example 334]
[IV] COCCNC(=O)c1ccc2nn(CC3CCN(C(=O)c4ccc(-c5ccc(F)cc5)cc4)CC3)cc2c1C [Example 5]
Query: // ranking: key=IC50, reverse=True Sort the labels as requested; that list is your answer.
Result: III, I, II, IV
(III: 74.2 nM, I: 25.1 nM, II: 8.41 nM, IV: 5.11 nM)

====

molecular target: EP2 subtype of the human PGE2 receptor (Homo sapiens); experiment: cAMP antagonism test on the human EP2 receptor (HTRF cAMP detection); assay type: cell-based; settings: hEP2 receptor, read-out: Antagonism hEP2 IC50
Observed property: IC50 (nM)

Cc1c(C(=O)NCC(F)(F)F)ccc2nn(CC3CN(C(=O)c4ccc(Oc5ccc(C(F)(F)F)cc5)cc4)C3)cc12 [Example 164]	10.9

[P] COCCNC(=O)c1ccc2nn(CC3CCN(C(=O)c4ccc(Oc5ccccn5)cc4)CC3)cc2c1C [Example 346]
[Q] COCCNC(=O)c1ccc2nn(CC3CN(C(=O)c4ccc(Cl)cc4)C3)cc2c1OC [Example 214]
[R] COCCNC(=O)c1ccc2nn(CC3CCN(C(=O)c4ccc(Oc5ccccc5)cc4)CC3)cc2c1C [Example 19]
Query: With regard to IC50, arrange the entries in ascending order, please. Answer with the labels in sequence, matching the requested order.
Result: R, P, Q
(R: 8.57 nM, P: 14.9 nM, Q: 64.9 nM)

The values you see were collected from patent US9062041B2.
